Readings of GI50 for the listed molecules
# System: HOP-92
# Procedure Text: NCI tumour cell line growth inhibition, 48 h
Activity calls are given as the source filed them. No stated cut-off is given here; in the data, active = GI50 up to about 1.1 µM and inactive = higher.
Test Readout: GI50

molecule="OC1C2CCC3C2CC(C(O)(c2ccccc2)c2ccccc2)C13 (centres undefined)" study_target=HOP-92 result="45.2 µM (inactive)"
molecule=CCCCCCCCCCCCn1[nH]c(C)c(C(=S)SCCCCCCCC)c1=O study_target=HOP-92 result="> 100 µM (inactive)"
molecule=N#Cc1c(-c2ccc(Cl)cc2)c(C#N)c(=O)n(NS(=O)(=O)c2ccccc2)c1O study_target=HOP-92 result="19.3 µM (inactive)"
molecule=COc1ccc(/C=C/c2cnc3ccccc3n2)cc1OC study_target=HOP-92 result="94.8 µM (inactive)"
molecule=CCOC(=O)c1cn2c(n1)sc1cc(Cl)cc(Cl)c12 study_target=HOP-92 result="> 100 µM (inactive)"
molecule="CC12C3C4C1C1C2C3C41CO (centres undefined)" study_target=HOP-92 result="> 100 µM (inactive)"
molecule="O=C1O[C@H]2C3C4CCC(C4[C@@H]2I)[C@H]13 (some centres undefined)" study_target=HOP-92 result="> 100 µM (inactive)"
molecule="CN(CC(=O)O)c1ncc2c(n1)-c1ccccc1OC2c1ccccc1 (centres undefined)" study_target=HOP-92 result="> 100 µM (inactive)"
molecule=COc1ccc(/C=C/C(=O)c2sc(N)nc2C)cc1 study_target=HOP-92 result="> 100 µM (inactive)"
molecule=O=C1C(Br)=C(Br)C(=O)c2ccc(=O)ccc21 study_target=HOP-92 result="18.5 µM (inactive)"
molecule="CC(C)N(C(=O)C12C3C4C1C1C2C3C41C(N)=O)C(C)C (centres undefined)" study_target=HOP-92 result="> 100 µM (inactive)"
molecule="NCCCC(N/C=C1/N=C(c2ccccc2)OC1=O)C(=O)O (centres undefined)" study_target=HOP-92 result="> 100 µM (inactive)"
molecule="CCOC(=O)CCC(NC(=O)Cc1ccc(Nc2nc3cc(F)c(F)cc3nc2C(=O)OCC)cc1)C(=O)OCC (centres undefined)" study_target=HOP-92 result="28.8 µM (inactive)"
molecule=COc1ccc(-c2ncnc(-c3ccc(OC)c(OC)c3)n2)cc1OC study_target=HOP-92 result="> 100 µM (inactive)"
molecule="COC(=O)CC1(O)C(/C=C/c2ccccc2)C(C(=O)OC)C(=O)C(C(=O)OC)C1C(=O)OC (centres undefined)" study_target=HOP-92 result="> 100 µM (inactive)"
molecule=CN(C)CC(CO)(CN(C)C)CN(C)C study_target=HOP-92 result="> 100 µM (inactive)"
molecule="COC(=O)C1=CO[C@@H](OC2OC(CO)C(O)C(O)C2O)[C@@H]2[C@H](C)[C@@H](O)[C@@H](O)[C@]12O (some centres undefined)" study_target=HOP-92 result="> 100 µM (inactive)"
molecule=Cc1ccc(C(=O)/C=C(\O)C(=O)NN=C(c2ccccc2)c2ccccc2)cc1 study_target=HOP-92 result="28 µM (inactive)"
molecule=COc1cc(=O)oc(/C=C/C=O)c1C study_target=HOP-92 result="26.9 µM (inactive)"
